Please go through the items and note down their IC50 of IgG in BaF3-IL-22 proliferation assay.
Biological target: T1, human IL-22 (human, UniProt Q9GZX6 34-179)
T1 sequence: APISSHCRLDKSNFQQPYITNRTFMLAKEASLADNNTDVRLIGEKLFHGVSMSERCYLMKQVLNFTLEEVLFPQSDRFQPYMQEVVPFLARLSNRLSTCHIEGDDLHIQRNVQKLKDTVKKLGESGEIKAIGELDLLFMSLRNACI
Assay: cell-based or functional assay
Give your result in nM as a bare value.

Query: Please give the measured IC50 of IgG in BaF3-IL-22 proliferation assay for this binder: 367D04 IgG (non-germlined) (antibody, V domains shown, IgG) VH: EVQLVESGGGVVRPGGSLRLSCAASGFTFDDYGMNWVRQAPGKGLEWVSGVNWNGGTRDYAASVKGRFTISRDNAKNSLYLQMNSLRAEDTALYYCARGWYSGSPWSLGHWGRGTLVTVSS VL: QAVLTQPSSVSGSPGQSVTISCTGASGDVGAYNFVSWYQQHPGKTPKLIIYDVNKRPSGVSNRFSGSKSGNTASLTISRLQAEDESDYYCSSYTSRYTTEFGGGTKVTVLG
Result: 0.126

Query: Moving on to the next binder: 355E04 germlined IgG (antibody, V domains shown) VH: QVQLVQSGAEVKKPGASVKVSCKASGYTFTHYYMHWVRQAPGQGLEWVGWINPYTGGAFYAQKFQGRVTMTRDTSISTAYMELSRLRSDDTAVYYCAREPEKFDSPNAEIWGRGTLVTVSS VL: QAVLTQPPSVSGAPGQRVTISCTGSSSNIGAGYGVHWYQQLPGTAPKLLIYGNSNRPSGVPDRFSGSKSGTSASLAITGLQAEDEADYYCQSYDSSLSGYVFGGGTQLTVLG
Result: 0.1

Query: Moving on to the next binder: 354A08 germlined IgG (antibody, V domains shown) VH: QVQLVQSGAEVKKPGASVKVSCKASGYTFTDYYMHWVRQAPGQGLEWVGWINPYTGGAFYAQKFRGRVTMTRDTSISTAYMELSRLRSDDTAVYYCAREPERFGDSTGQVWGRGTLVTVSS VL: QAVLTQPPSVSGAPGQRVTISCTGSSSNIGAGYGVHWYQQLPGTAPKLLIYGNSNRPSGVPDRFSGSKSGTSASLAITGLQAEDEADYYCYHWDKEQSGYVFGGGTQLTVLG
Result: 0.079
